Target: Adenosine receptor A1 (Homo sapiens)
Sequence (whole entry): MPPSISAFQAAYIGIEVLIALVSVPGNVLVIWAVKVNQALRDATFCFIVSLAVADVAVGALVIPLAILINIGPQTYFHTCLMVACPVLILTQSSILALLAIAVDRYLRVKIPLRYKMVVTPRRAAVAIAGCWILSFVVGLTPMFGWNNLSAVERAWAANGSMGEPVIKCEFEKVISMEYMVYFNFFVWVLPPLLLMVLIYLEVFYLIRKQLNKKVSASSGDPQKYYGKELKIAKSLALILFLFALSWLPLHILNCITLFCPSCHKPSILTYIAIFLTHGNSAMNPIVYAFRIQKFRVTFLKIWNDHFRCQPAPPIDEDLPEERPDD
Experiment: Activity at human adenosine A1 receptor expressed in CHOK1 cells assessed as agonist-receptor ternary complex remaining by […]
Format: functional, cell-based
Conditions: CHO-K1
Readout label: ED50 (µM)

(1) Nc1scc(-c2cccc(C(F)(F)F)c2)c1C(=O)c1ccccc1
(2) Nc1sc(-c2ccccc2)c(-c2cccc(C(F)(F)F)c2)c1C(=O)c1ccccc1
-- ask Could you point out whether the larger ED50 belongs to 1 or to 2 ? When you have decided, please share the label of that item.
-- reply 1
(1: 15.8 µM, 2: 2.3 µM)

----------
Biological target: Adenosine receptor A1 (Homo sapiens)
Test: Activity at human adenosine A1 receptor expressed in CHOK1 cells assessed as agonist-receptor ternary complex remaining by […]
Format: functional, cell-based
Details: CHO-K1
Readout label: ED50

The examples below pair each entry with its known result.
INSERT INTO assay_data (mol_smiles, readout_label, result) VALUES
  ('CCOC(=O)c1c(N)sc(-c2ccc(-c3ccncc3)cc2)c1-c1cccc(C(F)(F)F)c1', 'ED50', '> 10 µM'),
  ('Nc1sc(Cl)c(-c2cccc(C(F)(F)F)c2)c1C(=O)c1ccccc1', 'ED50', '> 10 µM');

-- ask Input CCOC(=O)c1c(N)sc(-c2ccc(C(C)=O)cc2)c1-c1cccc(C(F)(F)F)c1 , output reported ED50.
-- reply > 10 µM
